Assignment: determine reported t1/2 for the given compounds.
# Tested on: Liver
# experimentDescription: Half life in mouse liver microsomes at 1.5 uM in presence of NADPH by liquid chromatography/tandem mass spectrometric analysis
# Assay type: ADME, microsome

Entry `O=C(N/C=C/c1nc(-c2cccc(F)c2)cs1)N1CCCCC1` ; t1/2 = 13 min

Entry O=C(Nc1ccc2sc(-c3ccc(F)c(F)c3)nc2c1)N1CCC(F)C1 (stereo unspecified) ; t1/2 = > 60 min

Entry `O=C(Nc1ccc2sc(-c3ccccc3)nc2c1)N1CCCCC1` ; t1/2 = 17 min

Entry `O=C(NCCc1nc(-c2cccc(F)c2)cs1)N1CCC(F)(F)CC1` ; t1/2 = < 5 min

Entry `CC(C)(Cc1csc(-c2ccccc2)n1)NC(=O)N1CCCCC1` ; t1/2 = < 5 min

Entry CC1CCCCN1C(=O)NCCc1nc(-c2cccc(F)c2)cs1 (stereo unspecified) ; t1/2 = < 5 min
